assayed system: human CYP2D6 (Homo sapiens, UniProt P10635)
Sequence (P10635 whole entry): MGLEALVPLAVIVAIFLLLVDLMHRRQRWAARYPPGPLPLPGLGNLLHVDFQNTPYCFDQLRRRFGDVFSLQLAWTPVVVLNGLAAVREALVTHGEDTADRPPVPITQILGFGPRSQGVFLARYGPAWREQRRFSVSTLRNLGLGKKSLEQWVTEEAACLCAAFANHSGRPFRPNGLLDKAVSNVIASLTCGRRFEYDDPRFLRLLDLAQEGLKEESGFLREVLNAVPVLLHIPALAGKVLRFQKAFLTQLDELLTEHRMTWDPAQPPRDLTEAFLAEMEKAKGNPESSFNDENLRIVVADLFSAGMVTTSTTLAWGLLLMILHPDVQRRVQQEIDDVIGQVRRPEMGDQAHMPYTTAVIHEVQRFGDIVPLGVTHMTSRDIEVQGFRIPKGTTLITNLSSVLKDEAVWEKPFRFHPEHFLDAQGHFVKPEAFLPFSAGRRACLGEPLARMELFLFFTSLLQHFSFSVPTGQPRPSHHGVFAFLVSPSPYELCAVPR
procedure summary: biochemical
conditions: CYP2D6 IC50 (half-maximal inhibitory concentration)
Where a name gives a salt, the structure may show the parent alone.
Threshold 6000 nM. IC50 below it: yes. IC50 at it or above: no.

QUERY: In plain terms, does `O=C(CN1CCN(Cc2ccc3c(c2)OCO3)CC1)N1c2ccccc2Sc2ccccc21` come in under 6000 nM for IC50?
RESULT: yes

QUERY: Report whether reported IC50 is lower than 6000 nM (strictly) for `COc1ccc2c(c1OC)CN1CCc3cc4c(cc3[C@@H]1C2)OCO4`
RESULT: yes

QUERY: State whether 6000 nM exceeds IC50 recorded for CC(C1CC1)C(O)(Cn1cncn1)c1ccc(Cl)cc1 (stereo not drawn) .
RESULT: no

QUERY: In the record for Clc1ccc(C(c2ccccc2Cl)C(Cl)Cl)cc1 (stereo not drawn) , is IC50 less than 6000 nM?
RESULT: no

QUERY: Field: below-cutoff. Rule: recorded IC50 strictly less than 6000 nM. Subject: CC(COc1ccccc1)N(CCCl)Cc1ccccc1 (stereo not drawn) [Phenoxybenzamine hydrochloride]
RESULT: yes

QUERY: State whether 6000 nM exceeds IC50 recorded for `Cc1ccc2c(c1N)C(=O)c1ccccc1C2=O` .
RESULT: yes

QUERY: Regarding CC(=O)SCC(Cc1ccccc1)C(=O)NCC(=O)OCc1ccccc1 (stereo not drawn) , kindly confirm whether its IC50 is beneath 6000 nM.
RESULT: yes

QUERY: API: query returns whether the compound falls strictly under 6000 nM in IC50. Query: `COC(=O)N(OC)c1ccccc1COc1ccn(-c2ccc(Cl)cc2)n1`
RESULT: no

QUERY: API: query returns whether the compound falls strictly under 6000 nM in IC50. Query: `CNC(=O)Oc1ccc2c(c1)[C@]1(C)CCN(C)[C@@H]1N2C`
RESULT: yes

###

assayed system: human CYP2C19 (Homo sapiens, UniProt P33261)
Sequence (P33261 whole entry): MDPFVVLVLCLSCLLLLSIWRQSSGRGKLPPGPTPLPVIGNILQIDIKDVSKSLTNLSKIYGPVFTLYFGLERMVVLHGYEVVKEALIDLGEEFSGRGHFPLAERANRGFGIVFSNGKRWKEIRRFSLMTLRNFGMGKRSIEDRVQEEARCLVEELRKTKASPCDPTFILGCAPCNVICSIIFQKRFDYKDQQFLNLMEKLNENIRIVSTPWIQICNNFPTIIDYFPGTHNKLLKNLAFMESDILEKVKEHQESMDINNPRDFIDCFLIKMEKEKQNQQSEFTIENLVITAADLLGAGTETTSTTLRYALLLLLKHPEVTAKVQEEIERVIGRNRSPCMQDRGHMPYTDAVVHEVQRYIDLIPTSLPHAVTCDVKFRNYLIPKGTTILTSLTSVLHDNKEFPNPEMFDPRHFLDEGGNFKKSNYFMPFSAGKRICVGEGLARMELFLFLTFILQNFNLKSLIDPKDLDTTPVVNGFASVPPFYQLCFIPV
measured property: CYP2C19 AC50 (half-maximal activity concentration)

[[record]]
input_smiles = "C[C@]12CC[C@@H]3c4ccc(OC(=O)N(CCCl)CCCl)cc4CC[C@H]3[C@@H]1CC[C@@H]2O"
assayed_system = "human CYP2C19 (Homo sapiens, UniProt P33261)"
assay_result = "Inactive"

[[record]]
input_smiles = "O=[N+]([O-])c1cccc(Cl)c1Cl"
assayed_system = "human CYP2C19 (Homo sapiens, UniProt P33261)"
assay_result = "Inactive"

[[record]]
input_smiles = "CCOC(=O)c1ccc(NC(=O)CN2CCCCC2)cc1"
assayed_system = "human CYP2C19 (Homo sapiens, UniProt P33261)"
assay_result = "Inactive"


###

assayed system: human CYP2C9 (Homo sapiens)
Sequence (P11712 whole entry): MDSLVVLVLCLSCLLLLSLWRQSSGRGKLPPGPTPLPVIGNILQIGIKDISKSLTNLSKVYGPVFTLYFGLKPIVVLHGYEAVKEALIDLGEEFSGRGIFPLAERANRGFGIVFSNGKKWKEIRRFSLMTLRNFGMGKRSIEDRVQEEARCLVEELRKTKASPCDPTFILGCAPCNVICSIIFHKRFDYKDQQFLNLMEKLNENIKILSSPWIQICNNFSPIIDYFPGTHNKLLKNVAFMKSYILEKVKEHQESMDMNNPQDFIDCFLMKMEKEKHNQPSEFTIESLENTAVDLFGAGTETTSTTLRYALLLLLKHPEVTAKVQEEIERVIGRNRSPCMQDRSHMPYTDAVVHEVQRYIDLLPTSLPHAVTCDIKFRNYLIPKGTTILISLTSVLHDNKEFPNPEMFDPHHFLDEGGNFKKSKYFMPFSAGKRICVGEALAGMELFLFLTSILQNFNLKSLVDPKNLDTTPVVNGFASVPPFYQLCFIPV
Where a name gives a salt, the structure may show the parent alone.
measured property: CYP2C9 AC50 (half-maximal activity concentration)

// below: answered molecules
[[record]]
molecule = "CC1(C)[C@@H](O[C@H]2O[C@H](C(=O)O)[C@@H](O)[C@H](O)[C@H]2O[C@@H]2O[C@H](C(=O)O)[C@@H](O)[C@H](O)[C@H]2O)CC[C@]2(C)[C@H]3C(=O)C=C4[C@@H]5C[C@@](C)(C(=O)O)CC[C@]5(C)CC[C@@]4(C)[C@]3(C)CC[C@@H]12.N.O.O.O [Ammonium glycyrrhizinate trihydrate]"
assay_result = "Inactive"

[[record]]
molecule = "COC(=O)c1ccc(C(=O)OC)cc1 [Dimethyl terephthalate]"
assay_result = "Inactive"

[[record]]
molecule = "COc1cc(Nc2c(C#N)cnc3cc(OCCCN4CCN(C)CC4)c(OC)cc23)c(Cl)cc1Cl"
assay_result = "Inactive"

[[record]]
molecule = "C/C=C(\\C)C(=O)OCc1ccccc1 [Benzyl tiglate]"
assay_result = "Inactive"

[[record]]
molecule = "O=C1C(=O)c2cccc3cccc1c23"
assay_result = "Inconclusive inhibitor"


QUERY: Check the records and state CYP2C9 AC50 (half-maximal activity concentration) for CCCCCC=CCC1CC(=O)OC1=O (centres unmarked) [2-Octen-1-ylsuccinic anhydride]
RESULT: Inactive

QUERY: Tell me measured CYP2C9 AC50 (half-maximal activity concentration) for O=C(O)CC(C(=O)O)S(=O)(=O)O (centres unmarked) please.
RESULT: Inactive

QUERY: State its CYP2C9 AC50 (half-maximal activity concentration): O=C(Cl)c1ccc(F)c(Cl)c1 [3-Chloro-4-fluorobenzoyl chloride]
RESULT: Inactive

QUERY: Consider the molecule CN1CC[C@]23c4c5ccc(O)c4O[C@H]2[C@@H](O)C=C[C@H]3[C@H]1C5 [Morphine sulfate pentahydrate] and give its recorded CYP2C9 AC50 (half-maximal activity concentration).
RESULT: Inactive

QUERY: Provide measured CYP2C9 AC50 (half-maximal activity concentration) value, entry: CC(C)NC(=O)c1ccccc1N [2-Amino-N-(1-methylethyl)benzamide]
RESULT: Inactive

QUERY: Quickly give me recorded CYP2C9 AC50 (half-maximal activity concentration) for O=[N+]([O-])c1ccccc1CCl [2-Nitrobenzyl chloride]
RESULT: Inactive

QUERY: Hello, please tell me recorded CYP2C9 AC50 (half-maximal activity concentration) for this one: `CC(=O)[C@H]1CC[C@H]2[C@@H]3CC[C@H]4C[C@](C)(O)CC[C@]4(C)[C@H]3CC[C@]12C`
RESULT: Inactive

Entry source: paper PMC12155096
